Sourced from patent US6395913B1

# assay comment: Extraction affinity of water-immiscible solvents: distribution coefficients against a standard water/3-buten-1,2-diol/epoxybutene solution
# Type: physicochemical
# condition context: 1 part solvent : 1 part standard solution (35% water/65% diol with approx. 10 wt% epoxybutene), room temperature, GC analysis; ONE PHASE = no phase separation
observation type: Distribution Coefficients Epoxy-Butene

| molecule | value measured |
| --- | --- |
| CC(=O)OCCC(C)C [Isopentyl Acetate] | 2.80 |

P. CC(C)COC(=O)C(C)C [Isobutyl isobutyrate]
Q. CCCCCCCCCC
R. CC(C)C(=O)OCC(C)(C)C(OC(=O)C(C)C)C(C)C (stereo not shown)
Write the entries in order, lowest recorded Distribution Coefficients Epoxy-Butene first. Submit the labels in the order that the ranking request calls for. Q, R, P
(Q: 1.06, R: 2.19, P: 3.49)

====

# assay comment: Extraction affinity of water-immiscible solvents: distribution coefficients against a standard water/3-buten-1,2-diol/epoxybutene solution
# Type: physicochemical
# condition context: 1 part solvent : 1 part standard water-diol-epoxybutene solution, room temperature
observation type: Distribution Coefficients Solvent

| compound | observation type | value measured |
| --- | --- | --- |
| Cc1ccc(C)cc1 [p-Xylene] | Distribution Coefficients Solvent | 368 |
| Cc1cccc(C)c1 [m-Xylene] | Distribution Coefficients Solvent | 1479 |

P. CCCCCCC [n-Heptane]
Q. CC(C)C(=O)OCC(C)(C)C(OC(=O)C(C)C)C(C)C (stereo not shown)
Field: lower Distribution Coefficients Solvent | Options: P / Q Answer by quoting the chosen item's label. Q
(Q: 124, P: 851)

====

# assay comment: Extraction affinity of water-immiscible solvents: distribution coefficients against a standard water/3-buten-1,2-diol/epoxybutene solution
# Assay type: physicochemical
# condition context: 1 part solvent : 1 part standard solution (35% water/65% diol with approx. 10 wt% epoxybutene), room temperature, GC analysis; ONE PHASE = no phase separation
observation type: Distribution Coefficients Epoxy-Butene

| molecule | Distribution Coefficients Epoxy-Butene |
| --- | --- |
| ClC(Cl)Cl [Chloroform] | 8.73 |
| Clc1ccccc1Cl [1,2-Dichlorobenzene] | 3.91 |
| COC(=O)c1ccccc1 [Methyl Benzoate] | 2.84 |
| CCCCCCC [n-Heptane] | 1.93 |
| Cc1cccc(C)c1 [m-Xylene] | 2.32 |
| Cc1cccc2ccccc12 [1-Methylnaphthalene] | 3.10 |
| c1ccc2c(c1)CCCC2 [1,2,3,4-Tetrahydronaphthalene] | 1.91 |
| C=C(C)[C@H]1CC=C(C)CC1 [Limonene] | 2.28 |

====

# assay comment: Extraction affinity of water-immiscible solvents: distribution coefficients against a standard water/3-buten-1,2-diol/epoxybutene solution
# Format: physicochemical
# condition context: 1 part solvent : 1 part standard water-diol-epoxybutene solution, room temperature; diol = 3-buten-1,2-diol
observation type: Distribution Coefficients Diol

| compound | Distribution Coefficients Diol |
| --- | --- |
| ClC(Cl)Cl [Chloroform] | 0.106 |
| CCCCOC(=O)CC [Butyl Propionate] | 0.115 |
| CCCCCCCCCC | 0.001 |

a. CC(C)COC(=O)C(C)C [Isobutyl isobutyrate]
b. CCCCCCC
c. Cc1cccc2ccccc12
d. CC(=O)OCCC(C)C [Isopentyl Acetate]
Write the entries in order, lowest recorded Distribution Coefficients Diol first. Submit the labels in the order that the ranking request calls for. b, c, a, d
(b: 0.001, c: 0.006, a: 0.065, d: 0.181)

====

# assay comment: Extraction affinity of water-immiscible solvents: distribution coefficients against a standard water/3-buten-1,2-diol/epoxybutene solution
# Type: physicochemical
# condition context: 1 part solvent : 1 part standard solution (35% water/65% diol with approx. 10 wt% epoxybutene), room temperature, GC analysis; ONE PHASE = no phase separation
observation type: Distribution Coefficients Epoxy-Butene

| compound | observation type | value measured |
| --- | --- | --- |
| CCCCOC(=O)CC [Butyl Propionate] | Distribution Coefficients Epoxy-Butene | 3.96 |
| Cc1ccc(C)cc1 | Distribution Coefficients Epoxy-Butene | 4.34 |
| C1CCCCC1 | Distribution Coefficients Epoxy-Butene | 2.09 |
| CC(C)c1cccc(C(C)C)c1 | Distribution Coefficients Epoxy-Butene | 1.92 |

====

# assay comment: Extraction affinity of water-immiscible solvents: distribution coefficients against a standard water/3-buten-1,2-diol/epoxybutene solution
# Format: physicochemical
# condition context: 1 part solvent : 1 part standard water-diol-epoxybutene solution, room temperature
observation type: Distribution Coefficients Water
Answer using only a numeral; do not append any unit.

Examples with answers:
| compound | observation type | value measured |
| --- | --- | --- |
| C=C(C)[C@H]1CC=C(C)CC1 | Distribution Coefficients Water | 0.001 |
| ClC(Cl)Cl [Chloroform] | Distribution Coefficients Water | 0.024 |

Lab note: next compound to report on.
Any idea what Distribution Coefficients Water was measured for Clc1ccccc1Cl ? 0.002

====

# assay comment: Extraction affinity of water-immiscible solvents: distribution coefficients against a standard water/3-buten-1,2-diol/epoxybutene solution
# Assay type: physicochemical
# condition context: 1 part solvent : 1 part standard solution (35% water/65% diol with approx. 10 wt% epoxybutene), room temperature, GC analysis; ONE PHASE = no phase separation

| molecule | Distribution Coefficients Epoxy-Butene |
| --- | --- |
| CCC(O)CC | ONE PHASE |
| CCCCC(CC)CO (stereo not drawn) | ONE PHASE |
| COC(C)(C)C | ONE PHASE |

====

# assay comment: Extraction affinity of water-immiscible solvents: distribution coefficients against a standard water/3-buten-1,2-diol/epoxybutene solution
# Assay type: physicochemical
# condition context: 1 part solvent : 1 part standard solution (35% water/65% diol with approx. 10 wt% epoxybutene), room temperature, GC analysis; ONE PHASE = no phase separation
observation type: Distribution Coefficients Epoxy-Butene

| compound | observation type | value measured |
| --- | --- | --- |
| CC1=CC(=O)CC(C)(C)C1 [Isophorone] | Distribution Coefficients Epoxy-Butene | ONE PHASE |
| CCCC(C)=O [2-Pentanone] | Distribution Coefficients Epoxy-Butene | ONE PHASE |
| CC1COC(=O)O1 (stereo not drawn) [Propylene Carbonate] | Distribution Coefficients Epoxy-Butene | ONE PHASE |
